System: NCI-H460
ASSAY_METHOD_TEXT: NCI tumour cell line growth inhibition, 48 h
Active and inactive are the calls of the source. Rule as the data show it: active = GI50 up to about 1.1 µM and inactive = higher.
Documented GI50 across a set of compounds

Lab note: measured GI50 of C=C(C(=C)N1N=NC2C3CCC(C3)C21)N1N=NC2C3CCC(C3)C21 (stereo unspecified) was > 100 µM (inactive)

Further cases:
Lab note: measured GI50 of O=C(n1c(=O)n(-c2ccc(Cl)cc2)c(=O)n1C(=O)C(Cl)(Cl)Cl)C(Cl)(Cl)Cl was > 100 µM (inactive)

Lab note: measured GI50 of CC(C)(C)OC(=O)NC(CS(=O)(=O)O)C(=O)O (stereo unspecified) was > 100 µM (inactive)

Lab note: measured GI50 of NC(=O)CN1CC(C2=C(O)CN(CC(N)=O)C2=O)=CC1=O was > 100 µM (inactive)

Lab note: measured GI50 of COC(=O)/C=C(/C(=O)OC)c1c(C)cc2c(C)cc(C)cc(C)c1-2 was 19.9 µM (inactive)

Lab note: measured GI50 of CC1(C)C(=S)C(C)(C)C1=S was > 100 µM (inactive)

Lab note: measured GI50 of CC/C(=N/O)c1ccc2[nH]c3c(C)cc([N+](=O)[O-])c(C)c3c2c1 was 39.2 µM (inactive)

Lab note: measured GI50 of COc1ccc(/C=N/NS(=O)(=O)c2ccc(/C=C3\NC(=O)N(C)C3=O)cc2)cc1 was 37.5 µM (inactive)

Lab note: measured GI50 of O=C(O)/C(=C\c1ccccc1Cl)S(=O)(=O)c1ccccc1 was > 100 µM (inactive)

Lab note: measured GI50 of CC1(C)C(=O)N(O)C(C)(C)N1N=O was > 10 µM (inactive)

Lab note: measured GI50 of COc1ccc2c(c1)[n+]([O-])c(-c1ccc(OC)c(OC)c1)c(N)[n+]2[O-] was 49.4 µM (inactive)
